system: PPARg:RXRa (NR concentration 180 nM, RXRa partner concentration 90 nM); experiment: PBM binding z-score (relative to random genomic background probes); higher = stronger binding; sequences stand for … in GC…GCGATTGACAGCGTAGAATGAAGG
attributeMeasured: PBM binding z-score
Quick one: just the number, no unit, thanks!

Below, each entry is followed by its recorded PBM binding z-score result.
- macromoleculeSequence: "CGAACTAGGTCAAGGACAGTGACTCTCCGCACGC"
  numericValue: 7.35
- macromoleculeSequence: "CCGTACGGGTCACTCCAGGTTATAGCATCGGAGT"
  numericValue: 2.97
- macromoleculeSequence: "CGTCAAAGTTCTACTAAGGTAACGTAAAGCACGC"
  numericValue: 0.459

Report PBM binding z-score for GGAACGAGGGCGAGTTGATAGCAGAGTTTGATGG please.
0.373

Report PBM binding z-score for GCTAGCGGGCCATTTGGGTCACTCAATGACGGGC please.
0.395

Report PBM binding z-score for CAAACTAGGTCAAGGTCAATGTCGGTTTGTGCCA please.
9.35

Report PBM binding z-score for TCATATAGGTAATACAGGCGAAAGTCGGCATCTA please.
0.851
